Task for the reader: assign each of the following sequences its reported # Spec.
# targetOfAssay: sHLA-E*01:03 (Homo sapiens, UniProt P13747)
# Construct: A soluble construct of HLA-E*01:03 was constructed by removing the transmembrane and cytoplasmic domains; expressed in transfected cells; host or cells: human U-373MG cells, uninfected or infected with CMV strain AD169
# experimentDescription: Identification of peptides eluted from soluble HLA-E of CMV-infected vs uninfected U-373MG cells by immunoaffinity purification and LC-MS/MS
# Type: binding
# protocolConditions: number of spectra found for the HCMV peptide listed as HLA-E ligand (Table 1)
Number, no unit, nothing else.

Look up # Spec for this sequence: VWTSGSDSDEELVTTE (91)
399

Again, but for ARERGEFGDEDEEQENDGEPR (21)
351

Again, but for APSQKSKRSVTVEQPSTSADGSN (7)
21

Again, but for SVTVEQPSTSA (12)
29

Again, but for VRTAADISSTLRSVPAPRPSP (66)
3

Again, but for RSVTVEQPSTSAD (9)
28

Again, but for PTYDELPSRPPQ (4)
730

Again, but for DDDVWTSGSDSDEELVTTER (87)
396

Again, but for MDGDVRTAADISSTER (63) (MDGDVRTAADISSTLR)
519

Again, but for EAGGVGGSSGGGGGSGLLPAKRS (55)
1211

---

# targetOfAssay: sHLA-E*01:03 (Homo sapiens, UniProt P13747)
# Construct: A soluble construct of HLA-E*01:03 was constructed by removing the transmembrane and cytoplasmic domains; expressed in transfected cells; host or cells: human U-373MG cells, uninfected or infected with CMV strain AD169
# experimentDescription: Identification of peptides eluted from soluble HLA-E of CMV-infected vs uninfected U-373MG cells by immunoaffinity purification and LC-MS/MS
# Type: binding
# protocolConditions: number of spectra found for the HCMV peptide listed as HLA-E ligand (Table 1)
Ends that are not written are not given here.
valueKind: # Spec
Number, no unit, nothing else.

Look up # Spec for this sequence: PNTYIHKTETD (60)
221

Again, but for PVTGEDTFSAHGKSD (52)
615

Again, but for SSVSGVRTPR (17) (also: PTM present)
2

Again, but for VRTAADISSTLR (67)
2

Again, but for VLGPISGHVLK (79)
14

Again, but for SQKSKRSVTVEQPSTSAD (8)
23

Again, but for VRTAADISSTLRSVPAPRPSPISTA (68)
3

Again, but for VTVEQPSTSAD (13)
30

Again, but for PATLTAYDK (57)
572

Again, but for ARERGEFGDEDEEQEND (22)
351

Again, but for HRHLPVAD (82)
139

Again, but for AQGDDDVWTSGSDSDEELVTTER (85)
393

Again, but for VTFEFVPNTK (46)
419

Again, but for VLGPISGHV (78)
14

Again, but for GPGLDNDLMNEPMGLGGLGGGGGGGGKKH (43)
312
